Assay: conditioned avoidance-escape procedure (modified pole-climb avoidance)
Assay type: in vivo
Conditions: oral; suppression of conditioned avoidance; male Wistar rat; read-out: Oral ED50 Avoidance
Collected ED50 values appear next to each entry.
Value expressed in mg/kg; do not type the unit.

Indicate its recorded ED50; the compound in question is CC1=Nc2c(C)nn(C)c2C2=N[C@@H](C)CN12 [R1=CH3, R2=CH3, R3=CH3, R4=H, R5=CH3 (S-isomer)]
11.5

Return the recorded ED50 value; entry: CCn1nc(C)c2c1C1=NCCN1C(C)=N2
10

Specify reported ED50 for the compound shown: CCC1=Nc2c(C)nn(C)c2C2=NCC(C)N12 (centres unmarked)
35

State its ED50: CCC1=Nc2c(C)nn(CC)c2C2=NC(C)CN12 (centres unmarked)
9
